# TESTED_TARGET: human serum albumin (human) (UniProt P02768)
# Sequence (P02768 25-609 limits assumed): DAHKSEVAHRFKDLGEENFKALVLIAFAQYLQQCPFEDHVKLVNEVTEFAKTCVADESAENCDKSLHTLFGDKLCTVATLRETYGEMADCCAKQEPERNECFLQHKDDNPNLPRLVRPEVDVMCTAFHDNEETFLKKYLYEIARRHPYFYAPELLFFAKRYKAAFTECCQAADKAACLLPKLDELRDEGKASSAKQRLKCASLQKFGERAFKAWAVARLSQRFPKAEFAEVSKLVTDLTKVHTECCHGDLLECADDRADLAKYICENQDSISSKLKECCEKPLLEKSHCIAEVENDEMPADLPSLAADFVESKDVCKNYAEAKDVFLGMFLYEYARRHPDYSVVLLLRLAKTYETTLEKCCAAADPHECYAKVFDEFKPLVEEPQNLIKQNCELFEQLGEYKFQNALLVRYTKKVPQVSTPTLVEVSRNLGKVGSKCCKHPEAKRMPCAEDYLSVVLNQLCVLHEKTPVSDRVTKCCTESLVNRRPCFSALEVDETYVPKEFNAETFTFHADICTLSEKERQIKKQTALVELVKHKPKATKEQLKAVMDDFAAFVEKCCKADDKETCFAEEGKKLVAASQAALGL
# PROTOCOL_DESCRIPTION: solution ELISA screen (luminescence)
RECORDED_ENDPOINT: RLU (RLU)
Record the value in RLU, omitting the unit from your answer.

Asked: Please report the recorded RLU for SEQ ID NO 222 (designed binder, not shown: small tags and cut ends) MLPAPKNLVVSRVTEDSARLSWTAPDAAFDSFFIGYLEPQPPGEAIVLDVPGSERSYDLTGLKPGTEYNVTIQGVKGGFPSHPLAAAFTT .
Given back: 15600

Asked: Please report the recorded RLU for SEQ ID NO 267 (designed binder, not shown: small tags and cut ends) MLPAPKNLVVSRVTEDSARLSWTAPDAAFDSFYIAYAEPRPDGEAIGLWVPGSERSYDLTGLKPGTEYSVLIHGVKGGLLSSPLVAYFTT .
Given back: 29800

Asked: Please report the recorded RLU for SEQ ID NO 221 (designed binder, not shown: small tags and cut ends) MLPAPKNLVVSRVTEDSARLSWTAPDAAFDSFFIGYLEPQPPGEAIFLDVPGSERSYDLTGLKPGTEYNVTIQGVKGGFPSPLTAFFTT .
Given back: 59000

Asked: Please report the recorded RLU for SEQ ID NO 207 (designed binder, not shown: small tags and cut ends) MLPAPKNLVVSRVTEDSARLSWTAPDAAFDSFYIAYAEPRPDGEAIHLSVPGSERSYDLTGLKPGTEYSVLIHGVKGGLLSSPLAAYFTT .
Given back: 121000

Asked: Please report the recorded RLU for SEQ ID NO 212 (designed binder, not shown: small tags and cut ends) MLPAPKNLVVSRVTEDSARLSWTAPDAAFDSFYIAYAEPRPDGEAIWLAVPGSERSYDLTGLKPGTEYSVLIHGVKGGLLSSPLHAQFTT .
Given back: 17400

Asked: Please report the recorded RLU for SEQ ID NO 206 (designed binder, not shown: small tags and cut ends) MLPAPKNLVVSRVTEDSARLSWTAPDAAFDSFYIAYAEPRPDGEAIGLDVPGSERSYDLTGLKPGTEYSVLIHGVKGGLLSSPLSAIFTT .
Given back: 14000

Asked: Please report the recorded RLU for SEQ ID NO 263 (designed binder, not shown: small tags and cut ends) MLPAPKNLVVSRVTEDSARLSWTAPDAAFDSFYIAYAEPRPDGEAIALVVPGSERSYDLTGLKPGTEYSVLIHGVKGGLLSSPLAANFTT .
Given back: 23800

Asked: Please report the recorded RLU for SEQ ID NO 266 (designed binder, not shown: small tags and cut ends) MLPAPKNLVVSRVTEDSARLSWTAPDAAFDSFYIAYAEPRPDGEAIRLQVPGSERSYDLTGLKPGTEYSVLIHGVKGGLLSSPLGASFTT .
Given back: 36200

Asked: Please report the recorded RLU for SEQ ID NO 203 (designed binder, not shown: small tags and cut ends) MLPAPKNLVVSRVTEDSARLSWTAPDAAFDSFFIGYLEPQPPGEAIVLLVPGSERSYDLTGLKPGTEYNVTIQGVKGGFPSVPLAAFFTT .
Given back: 26000
